# Protocol Summary: binders of probe aHhip on microarray, primary screen, stem cell growth factor project, biochemical, small-molecule microarray, fluorescence 635/667 (AID 1087);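 note: score merges spot fluorescence at 667nm with spot signal to noise ratio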
# Test Conditions: higher = more signal
Measure: composite z-score
Returns: the value as a bare number; no unit string appended.

Compound | Measure | Measured Result
COC(=O)[C@H](C)NC(=O)CCC1CC(OC(=O)NCCc2ccc(F)cc2)CC2(CCCC(COC(=O)NCCC(C)C)O2)O1 (stereo partly specified) | composite z-score | -0.13
Cn1c(=O)n2n(c1=O)[C@H]1[C@H](O)[C@@H]3O[C@@H]3C(=O)[C@H]1CC2 | composite z-score | 0.0053
CCCCC#C[C@@H]1C=C[C@H](Oc2cc(OC)c(OC)c(OC)c2)[C@@H](COC(=O)OCC)O1 | composite z-score | 0.141

Incoming: Dear colleague, I am looking for the recorded composite z-score of the following compound: CCOC(=O)[C@H](Cc1ccccc1)NC(=O)CCC1CC(OC(=O)NCCc2ccc(F)cc2)CC2(CCCC(COC(=O)NCC3CCCCC3)O2)O1 (stereo partly specified)
Outgoing: -0.302

Incoming: Request the reported composite z-score associated with `C#CCCCON=C1C[C@@H](O)[C@@H](O)[C@@H]2[C@@H]3C(=O)N(c4cccc(Oc5ccccc5)c4)C(=O)[C@@H]3CC[C@H]12`
Outgoing: -0.0193

Incoming: What value of composite z-score has been recorded for this entry: `COC(=O)CC=C[C@@H](C)[C@@H](C=NO[C@H](C)c1cn([C@H](CO)Cc2ccccc2)nn1)OC`
Outgoing: 0.189

Incoming: Endpoint output: composite z-score of `COC(=O)NCC=Cc1nc(CCCO)co1` . Value?
Outgoing: -0.287

Incoming: Suppose we examine the compound CCOC(=O)[C@H](CC(C)C)NC(=O)CCC1CC(OC(=O)NCc2ccc3c(c2)OCO3)CC2(CCCC(COC(=O)NCCCN3CCCC3=O)O2)O1 (stereo partly specified) ; what composite z-score value has been reported?
Outgoing: -0.0645

Incoming: Would you mind telling me what composite z-score value was observed for `COC(=O)CC=C[C@@H](C)[C@@H](C=NOC[C@H]1O[C@H](c2ccccc2)C=C[C@@H]1Oc1ccc(OC)cc1)NS(=O)(=O)c1ccc(C)cc1` ?
Outgoing: -0.0645

Incoming: Please report the recorded composite z-score for `CO[C@H]1COC(=O)[C@H](C)NC(=O)[C@@H](C)COC(=O)[C@H]2CCCN2C(=O)CC=C[C@H]1C` .
Outgoing: -0.179

Incoming: Look up composite z-score: `CO[C@H](C1CCCCC1)[C@H](C)C=CCC(=O)OCCCc1ccccc1`
Outgoing: -0.145

Incoming: Entry `CC(C)CON=C1C[C@@H](O)[C@@H](O)[C@@H]2[C@@H]3C(=O)N(c4cccc(Oc5ccccc5)c4)C(=O)[C@@H]3CC[C@@H]12` : reported composite z-score = ?
Outgoing: 0.0373

Incoming: Given the compound `CCOC(=O)NN=C1C[C@@H](O)[C@@H](O)[C@@H]2[C@@H]3C(=O)N(C(C)(C)C)C(=O)[C@@H]3CC[C@H]12` , what is its reported composite z-score?
Outgoing: 0.0401

Incoming: Can you look up the measured composite z-score of `O=C(NN=C1C[C@@H](O)[C@@H](O)[C@@H]2[C@@H]3C(=O)N(Cc4ccccc4)C(=O)[C@@H]3CC[C@@H]12)OCc1ccccc1` for me?
Outgoing: 0.233
